Values from patent US10669252B2

# assayed system: TLR8 (Homo sapiens)
# Construct: host or cells: HEK293 (HEK-BLUE-hTLR8)
# Sequence (Q9NR97 27-1041): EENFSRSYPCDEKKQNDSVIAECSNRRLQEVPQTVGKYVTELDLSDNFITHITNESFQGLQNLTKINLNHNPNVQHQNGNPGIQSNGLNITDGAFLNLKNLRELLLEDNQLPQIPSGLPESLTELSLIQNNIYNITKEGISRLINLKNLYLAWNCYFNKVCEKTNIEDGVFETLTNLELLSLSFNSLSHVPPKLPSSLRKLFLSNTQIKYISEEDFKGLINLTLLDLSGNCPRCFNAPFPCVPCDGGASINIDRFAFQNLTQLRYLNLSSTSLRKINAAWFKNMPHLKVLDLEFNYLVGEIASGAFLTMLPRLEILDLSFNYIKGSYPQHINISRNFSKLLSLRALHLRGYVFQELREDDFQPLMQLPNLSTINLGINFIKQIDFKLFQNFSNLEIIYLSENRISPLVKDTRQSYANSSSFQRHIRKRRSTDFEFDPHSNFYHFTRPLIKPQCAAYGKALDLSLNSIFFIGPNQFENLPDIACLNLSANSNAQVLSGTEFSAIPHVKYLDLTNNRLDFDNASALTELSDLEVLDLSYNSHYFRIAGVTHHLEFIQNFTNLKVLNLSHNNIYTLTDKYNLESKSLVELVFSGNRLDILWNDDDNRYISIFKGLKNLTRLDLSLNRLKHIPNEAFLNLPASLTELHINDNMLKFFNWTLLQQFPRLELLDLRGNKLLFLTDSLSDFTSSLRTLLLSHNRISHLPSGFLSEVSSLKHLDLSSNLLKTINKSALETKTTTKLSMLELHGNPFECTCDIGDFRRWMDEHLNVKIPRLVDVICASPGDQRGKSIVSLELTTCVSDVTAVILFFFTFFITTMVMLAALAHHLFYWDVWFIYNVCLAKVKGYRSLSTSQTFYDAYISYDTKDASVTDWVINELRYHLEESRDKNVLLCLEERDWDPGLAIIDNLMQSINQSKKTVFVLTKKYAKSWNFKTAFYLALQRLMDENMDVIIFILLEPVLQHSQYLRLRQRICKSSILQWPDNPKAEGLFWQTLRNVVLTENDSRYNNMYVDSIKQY
# experimental protocol: TLR8 cell based assay (HEK-BLUE-hTLR8, SEAP reporter linked to NF-κB activation)
# measurement context: HEK-BLUE-hTLR8 cells, 24 h treatment, SEAP/QUANTI-Blue readout
recorded metric: EC50

smiles_representation=CCCN(CCC)C(=O)C1=Cc2ccc(-c3ccc4c(=O)n(CCP(=O)(OCC)OCC)ncc4c3)cc2N=C(N)C1 measurement="< 100 nM"
smiles_representation=CCCN(CCC)C(=O)C1=Cc2ccc(-c3ccc4c(=O)n(CC(C)(C)O)c(=O)n(C)c4c3)cc2N=C(N)C1 measurement="100 to 1000 nM"
smiles_representation=CCCN(CCC)C(=O)C1=Cc2ccc(-c3ccc4c(=O)n(CC(C)(C)O)ncc4c3)cc2N=C(N)C1 measurement="< 100 nM"

Query block: Please look up its EC50: CCCN(CCC)C(=O)C1=Cc2ccc(-c3ccc4c(=O)n(CCCO)ccc4c3)cc2N=C(N)C1
Result block: 100 to 1000 nM
